- tgt: Serine/threonine-protein kinase pim-2 (Homo sapiens, UniProt Q9P1W9)
- assay.method.text: Inhibition of full length recombinant human N-terminal GST-tagged PIM2 (1 to 311 residues) expressed in baculovirus infected sf21 cells at 200 nM using S6K2 peptide as substrate by electrophoretic mobility shift assay relative to control
measured.endpoint: inhibition (%)
Respond with the bare value in %.

- smiles.representation: "COc1ccc2c(c1CN1CCNCC1)O/C(=C\\c1c[nH]c3nc(Cl)ccc13)C2=O"
  value.unit: "%"
  inhibition: 41
- smiles.representation: "O=C1/C(=C/c2c[nH]c3nc(Cl)ccc23)Oc2c1ccc(O)c2CN1CCNCC1"
  value.unit: "%"
  inhibition: 58
- smiles.representation: "CCc1ccc2c(/C=C3\\Oc4c(ccc(OC)c4CN4CCNCC4)C3=O)c[nH]c2n1"
  value.unit: "%"
  inhibition: 23

Would you mind telling me what inhibition value was observed for COc1ccc2c(c1CN1CCNCC1)O/C(=C\c1c[nH]c3nc(C)ccc13)C2=O ?
25

###

- assay.method.text: Stability in mouse liver microsomes assessed as parent compound remaining at 1 uM after 1 hr
- Format: ADME, microsome
- conditions: read-out: Stability
// assign Met if remaining at 1 h, 1 µM falls strictly below 70%, else Not met (ties count as Not met)

- smiles.representation: "COc1ccc2c(c1CN1CCNCC1)O/C(=C\\c1n[nH]c3ccccc13)C2=O"
  label.value: "Not met"
- smiles.representation: "COc1ccc2c(c1CN1CCNCC1)O/C(=C\\c1c[nH]c3nc(Cl)ccc13)C2=O"
  label.value: "Met"

Then this molecule:
Is it true that remaining at 1 h, 1 µM reported for O=C1/C(=C/c2c[nH]c3nc(Cl)ccc23)Oc2c1ccc(O)c2CN1CCNCC1 is less than 70%?
Met

###

- tgt: hERG (KCNH2) (Homo sapiens)
- assay.method.text: Inhibition of human ERG expressed in CHO cells at 10 uM by patch clamp method relative to control
- Type: cell-based
- conditions: CHO cells expressing human ERG
measured.endpoint: inhibition at 10 µM (%)
Respond with the bare value in %.

Would you mind telling me what inhibition at 10 µM value was observed for COc1ccc2c(c1CN1CCNCC1)O/C(=C\c1c[nH]c3nc(Cl)ccc13)C2=O ?
22

Queued: COc1ccc2c(c1CN1CCNCC1)O/C(=C\c1c[nH]c3nc(C)ccc13)C2=O
14

Queued: O=C1/C(=C/c2c[nH]c3nc(Cl)ccc23)Oc2c1ccc(O)c2CN1CCNCC1
30

Queued: COc1ccc2c(c1CN1CCNCC1)O/C(=C\c1c[nH]c3ncccc13)C2=O
19

###

- tgt: Serine/threonine-protein kinase D2 (Homo sapiens) (UniProt Q9BZL6)
- Sequence (whole entry): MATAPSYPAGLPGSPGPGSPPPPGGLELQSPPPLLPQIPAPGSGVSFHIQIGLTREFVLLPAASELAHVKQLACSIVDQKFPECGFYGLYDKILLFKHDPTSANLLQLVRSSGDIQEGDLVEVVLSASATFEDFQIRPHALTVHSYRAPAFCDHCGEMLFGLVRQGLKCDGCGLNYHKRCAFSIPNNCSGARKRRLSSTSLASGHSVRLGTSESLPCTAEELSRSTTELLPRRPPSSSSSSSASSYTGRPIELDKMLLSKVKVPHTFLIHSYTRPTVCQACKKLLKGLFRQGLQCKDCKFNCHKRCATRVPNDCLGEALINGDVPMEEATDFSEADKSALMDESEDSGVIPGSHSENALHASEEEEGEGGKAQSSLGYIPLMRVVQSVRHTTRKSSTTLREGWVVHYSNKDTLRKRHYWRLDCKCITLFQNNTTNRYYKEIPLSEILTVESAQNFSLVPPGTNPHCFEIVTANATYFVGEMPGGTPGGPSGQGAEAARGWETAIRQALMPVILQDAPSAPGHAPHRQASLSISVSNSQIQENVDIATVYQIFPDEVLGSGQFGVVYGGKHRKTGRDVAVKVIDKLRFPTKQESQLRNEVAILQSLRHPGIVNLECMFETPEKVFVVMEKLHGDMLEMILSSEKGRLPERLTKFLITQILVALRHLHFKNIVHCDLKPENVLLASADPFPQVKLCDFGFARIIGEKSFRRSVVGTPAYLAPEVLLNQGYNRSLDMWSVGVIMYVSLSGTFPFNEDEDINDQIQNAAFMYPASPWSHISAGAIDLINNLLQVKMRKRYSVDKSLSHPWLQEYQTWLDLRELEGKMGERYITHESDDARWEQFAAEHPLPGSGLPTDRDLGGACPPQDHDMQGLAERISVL
- assay.method.text: Inhibition of full length recombinant human N-terminal GST-tagged PKD2 (1 to 878 end residues) expressed in baculovirus infected sf21 cells at 200 nM using GS peptide as substrate by electrophoretic mobility shift assay relative to control
Known inhibition of a selection of compounds
Respond with the bare value in %.

Would you mind telling me what inhibition value was observed for COc1ccc2c(c1CN1CCNCC1)O/C(=C\c1c[nH]c3nc(F)ccc13)C2=O ?
59

Queued: O=C1/C(=C/c2c[nH]c3nc(Cl)ccc23)Oc2c1ccc(O)c2CN1CCNCC1
30

Queued: CCc1ccc2c(/C=C3\Oc4c(ccc(OC)c4CN4CCNCC4)C3=O)c[nH]c2n1
90

Queued: COc1ccc2c(c1CN1CCNCC1)O/C(=C\c1c[nH]c3nc(Cl)ccc13)C2=O
62

###

Known IC50 of a selection of compounds
- tgt: Serine/threonine-protein kinase pim-1 (Homo sapiens)
- assay.method.text: Inhibition of full length recombinant human N-terminal His-tagged PIM1 (1 to 313 end residues) expressed in baculovirus infected sf21 cells using S6K2 peptide as substrate by electrophoretic mobility shift assay
Respond with the bare value in nM.

- smiles.representation: "O=C1/C(=C/c2c[nH]c3nc(Cl)ccc23)Oc2c1ccc(O)c2CN1CCNCC1"
  IC50, nM: 1.3

Field: next compound
Would you mind telling me what IC50 value was observed for COc1ccc2c(c1CN1CCNCC1)O/C(=C\c1c[nH]c3nc(Cl)ccc13)C2=O ?
0.49

###

- tgt: Serine/threonine-protein kinase pim-1 (Homo sapiens, UniProt P11309)
- assay.method.text: Inhibition of PIM1 (unknown origin) using 5-FAM-RSRHSSYPAGT-CONH2 as substrate after 2 hrs by electrophoretic mobility shift assay
pIC50: −log10 of the molar value.
Please enter yes where pIC50 is greater than or equal to 9, and no where it is lower.

Field: example entries. Status: answers known.
- smiles.representation: "CCCc1ccc2c(/C=C3\\Oc4c(ccc(OC)c4CN4CCNCC4)C3=O)c[nH]c2n1"
  label.value: "no"
- smiles.representation: "CCCCc1ccc2c(/C=C3\\Oc4c(ccc(OC)c4CN4CCNCC4)C3=O)c[nH]c2n1"
  label.value: "no"
- smiles.representation: "O=C1/C(=C/c2c[nH]c3ncccc23)Oc2c1ccc(O)c2CN1CCNCC1"
  label.value: "no"
- smiles.representation: "COc1ccc2c(c1CN1CCNCC1)O/C(=C\\c1c[nH]c3nc(F)ccc13)C2=O"
  label.value: "yes"
- smiles.representation: "Cc1ccc2c(/C=C3\\Oc4c(ccc(O)c4CN4CCNCC4)C3=O)c[nH]c2n1"
  label.value: "no"

Could you tell me if the measured pIC50 of COc1ccc2c(c1CN1CCNCC1)O/C(=C\c1c[nH]c3nc(-c4ccccc4)ccc13)C2=O reaches 9 or more?
no

Queued: COc1ccc2c(c1CN1CCNCC1)O/C(=C\c1c[nH]c3nc(Cl)ccc13)C2=O
yes

Queued: CCc1ccc2c(/C=C3\Oc4c(ccc(O)c4CN4CCNCC4)C3=O)c[nH]c2n1
no

###

- tgt: Death-associated protein kinase 1 (Homo sapiens)
- assay.method.text: Inhibition of recombinant human N-terminal GST-tagged DAPK1 catalytic domain (1 to 289 residues) expressed in baculovirus infected sf21 cells at 200 nM using DAPK1tide as substrate by electrophoretic mobility shift assay relative to control
measured.endpoint: inhibition (%)
Respond with the bare value in %.

Some compounds with known inhibition results, for comparison:
- smiles.representation: "COc1ccc2c(c1CN1CCNCC1)O/C(=C\\c1c[nH]c3nc(F)ccc13)C2=O"
  value.unit: "%"
  inhibition: 97
- smiles.representation: "COc1ccc2c(c1CN1CCNCC1)O/C(=C\\c1c[nH]c3nc(C)ccc13)C2=O"
  value.unit: "%"
  inhibition: 91

Would you mind telling me what inhibition value was observed for COc1ccc2c(c1CN1CCNCC1)O/C(=C\c1c[nH]c3nc(Cl)ccc13)C2=O ?
80

Queued: O=C1/C(=C/c2c[nH]c3nc(Cl)ccc23)Oc2c1ccc(O)c2CN1CCNCC1
57

Queued: CCc1ccc2c(/C=C3\Oc4c(ccc(OC)c4CN4CCNCC4)C3=O)c[nH]c2n1
77

###

- assay.method.text: Stability in human liver microsomes assessed as parent compound remaining at 1 uM after 1 hr
- Format: ADME, microsome
- conditions: read-out: Stability
Known remaining at 1 h, 1 µM of a selection of compounds
Note to self: number, then unit, no commentary.

Some compounds with known remaining at 1 h, 1 µM results, for comparison:
- smiles.representation: "O=C1/C(=C/c2c[nH]c3nc(Cl)ccc23)Oc2c1ccc(O)c2CN1CCNCC1"
  remaining at 1 h, 1 µM: "82%"
- smiles.representation: "COc1ccc2c(c1CN1CCNCC1)O/C(=C\\c1c[nH]c3nc(C)ccc13)C2=O"
  remaining at 1 h, 1 µM: "74%"
- smiles.representation: "COc1ccc2c(c1CN1CCNCC1)O/C(=C\\c1c[nH]c3nc(Cl)ccc13)C2=O"
  remaining at 1 h, 1 µM: "82%"
- smiles.representation: "COc1ccc2c(c1CN1CCNCC1)O/C(=C\\c1c[nH]c3ncccc13)C2=O"
  remaining at 1 h, 1 µM: "90%"

Field: next compound
Would you mind telling me what remaining at 1 h, 1 µM value was observed for COc1ccc2c(c1CN1CCNCC1)O/C(=C\c1n[nH]c3ccccc13)C2=O ?
68%
